Quick list: Wheat plant response rating per entry.
Test system: wheat
Assay: Test B postemergence herbicide test
Assay type: in vivo, Triticum aestivum
Set-up: key: 0 = no effect, 100 = complete control
Conditions: postemergence, 500 g ai/ha; visual rating, scale 0 (no effect) to 100 (complete control)
Procedure: At the same time, plants selected from these crop and weed species and also blackgrass (Alopecurus myosuroides Huds.), wheat (Triticum aestivum L.) and wild oat (Avena fatua L.) were treated with postemergence applications of test chemicals formulated in the same manner. […] Treated plants and controls were maintained in a greenhouse for 13 to 15 days, after which time all species were compared to controls and visually evaluated. […]
Lab note: write the figure by itself, no unit.

COMPOUND	Wheat plant response rating
CCc1nc(C(C)(C)C)sc1C(=O)Nc1cccc(C(=O)N(CC)CC)c1 [Compound 205]	20
CCc1nc(C(C)(C)C)sc1C(=O)Nc1cccc(C(=O)N(CC)CC)n1 [Compound 214]	0
CCn1nc(C(C)(C)C)cc1C(=O)Nc1cccc(OCCCF)c1 [Compound 138]	30
CCn1nc(C(C)(C)C)cc1C(=O)Nc1cc(C(=O)NC(C)(C)C)ccn1 [Compound 154]	10
CCOC(=O)c1ccnc(NC(=O)c2cc(C(C)(C)C)nn2CC)c1 [Compound 157]	20

Q: Please give the documented Wheat plant response rating of CCN(CC)C(=O)c1ccnc(NC(=O)c2cc(C(C)(C)C)nn2CC)c1 [Compound 153]
A: 10

Q: Please give the documented Wheat plant response rating of CCNC(=O)c1ccnc(NC(=O)c2nn(C(C)(C)C)cc2CC)c1 [Compound 233]
A: 10

Q: Please give the documented Wheat plant response rating of Cc1nn(C(C)(C)C)cc1C(=O)Nc1cccc(OC(C)C)c1 [Compound 189]
A: 0

Q: Please give the documented Wheat plant response rating of CCOc1cccc(NC(=O)c2cn(C(C)(C)C)nc2C)c1 [Compound 190]
A: 0

Q: Please give the documented Wheat plant response rating of CCc1nc(C(C)(C)C)sc1C(=O)Nc1cccc(C(=O)NCCF)c1 [Compound 209]
A: 20

----------
Test system: morningglory
Assay: Test A pre-/postemergence herbicide test
Type: in vivo, Ipomoea spp.
Conditions: Postemergence, 500 g ai/ha; 0 to 100 scale, 0 no effect, 100 complete control
RECORDED_METRIC: Morningglory plant response rating
Lab note: write the figure by itself, no unit.

Study these solved cases before continuing.
SMILES_CODE	Morningglory plant response rating
CCc1nc(C(C)(C)C)sc1C(=O)Nc1cccc(C(=O)NC(C)(C)C)n1	20
CC(=NO)c1cccc(NC(=O)c2cc(C(C)(C)C)nn2C)c1	30
CCNC(=O)c1cccc(NC(=O)c2nn(C3CCCC3)nc2CC)c1	10
CCNC(=O)c1ccc(F)c(NC(=O)c2cc(C3(C)CC3)nn2CC)c1	80
CCN(C)C(=O)c1ccc(F)c(NC(=O)c2cc(C(C)(C)C)nn2CC)n1	0

Q: Please give the documented Morningglory plant response rating of "Cn1nc(C(C)(C)C)cc1C(=O)Nc1cccc(C#N)c1"
A: 20

Q: Please give the documented Morningglory plant response rating of "CC(=NO)c1cccc(NC(=O)c2cc(C(C)(C)C)n[nH]2)c1"
A: 0

Q: Please give the documented Morningglory plant response rating of "CCN(C(C)=O)C(=O)c1ccc(F)c(NC(=O)c2cc(C(C)(C)C)nn2CC)c1"
A: 10

Q: Please give the documented Morningglory plant response rating of "CCn1nc(C(C)(C)C)cc1C(=O)Nc1cccc(OCCCF)c1"
A: 15
